Measured values drawn from paper PMC9713472 for this set.

B1: AURKA-Venus WT [human] / TPX2 [human (endogenous in U2OS)] (parent complex)
chain 1: MDRSKENCISGPVKATAPVGGPKRVLVTQQFPCQNPLPVNSGQAQRVLCPSNSSQRIPLQAQKLVSSHKPVQNQKQKQLQATSVPHPVSRPLNNTQKSKQPLPSAPENNPEEELASKQKNEESKKRQWALEDFEIGRPLGKGKFGNVYLAREKQSKFILALKVLFKAQLEKAGVEHQLRREVEIQSHLRHPNILRLYGYFHDATRVYLILEYAPLGTVYRELQKLSKFDEQRTATYITELANALSYCHSKRVIHRDIKPENLLLGSAGELKIADFGWSVHAPSSRRTTLCGTLDYLPPEMIEGRMHDEKVDLWSLGVLCYEFLVGKPPFEANTYQETYKRISRVEFTFPDFVTEGARDLISRLLKHNPSQRPMLREVLEHPWITANSSKPSNCQNKESASKQS
chain 2: MSQVKSSYSYDAPSDFINFSSLDDEGDTQNIDSWFEEKANLENKLLGKNGTGGLFQGKTPLRKANLQQAIVTPLKPVDNTYYKEAEKENLVEQSIPSNACSSLEVEAAISRKTPAQPQRRSLRLSAQKDLEQKEKHHVKMKAKRCATPVIIDEILPSKKMKVSNNKKKPEEEGSAHQDTAEKNASSPEKAKGRHTVPCMPPAKQKFLKSTEEQELEKSMKMQQEVVEMRKKNEEFKKLALAGIGQPVKKSVSQVTKSVDFHFRTDERIKQHPKNQEEYKEVNFTSELRKHPSSPARVTKGCTIVKPFNLSQGKKRTFDETVSTYVPLAQQVEDFHKRTPNRYHLRSKKDDINLLPSKSSVTKICRDPQTPVLQTKHRARAVTCKSTAELEAEELEKLQQYKFKARELDPRILEGGPILPKKPPVKPPTEPIGFDLEIEKRIQERESKKKTEDEHFEFHSRPCPTKILEDVVGVPEKKVLPITVPKSPAFALKNRIRMPTKEDEEEDEPVVIKAQPVPHYGVPFKPQIPEARTVEICPFSFDSRDKERQLQKEKKIKELQKGEVPKFKALPLPHFDTINLPEKKVKNVTQIEPFCLETDRRGALKAQTWKHQLEEELRQQKEAACFKARPNTVISQEPFVPKKEKKSVAEGLSGSLVQEPFQLATEKRAKERQELEKRMAEVEAQKAQQLEEARLQEEEQKKEELARLRRELVHKANPIRKYQGLEIKSSDQPLTVPVSPKFSTRFHC

Variants of: B1
Test: in situ proximity ligation assay (isPLA); mitotic U2OS cells, endogenous TPX2, n ≥ 10 cells; read off a plot
Measured Attribute: response

INPUT: # response lookup, item chain 1 R371A, chain 1 L374A
OUTPUT: ~1.3 AU
